- measurement notes: Metabolic stability in pooled rat liver microsomes
- measurement parameters: rat, pooled rat liver microsomes, pH 7.4, T1/2, rat liver microsomes; Table 2 (Example 17)
measurement kind: half-life at 0.5 µM (min)
Numbers only, in min.

Output measured half-life at 0.5 µM for this item: "O=C(c1ccc(F)cc1)C1CCN(CCn2c(=O)[nH]c3ccccc3c2=O)CC1"
17.5

----------
- measurement notes: Metabolic stability in pooled rat liver microsomes
- measurement parameters: rat, pooled rat liver microsomes, pH 7.4, Clint, rat liver microsomes; Table 1 (Example 16)
measurement kind: CLint scaled at 0.5 µM (mL/min/kg)
Give bare numbers, in mL/min/kg.

Answer with the recorded CLint scaled at 0.5 µM for the compound listed here: O=C(c1ccc(F)cc1)C1CCN(CCn2c(=O)[nH]c3ccccc3c2=O)CC1 [ketanserin]
188

----------
- measurement notes: in vitro
- measurement parameters: rat, microsomes, 1 h, 0.5 µM, pH 7.4
- Protocol: Buffer solutions were prepared as follows: • a. Buffer A: 0.1 M monobasic potassium phosphate buffer containing 1.0 mM EDTA. • b. Buffer B: 0.1 M dibasic potassium phosphate buffer containing 1.0 mM EDTA. • c. Buffer C: 0.1 M potassium phosphate buffer containing 1.0 mM EDTA was adjusted to pH 7.4 by titrating 700 mL of Buffer B with Buffer A while monitoring with a pH meter. • 2. An NADPH stock solution (6 mM) was prepared by dissolving NADPH into Buffer C. • 3. […]
measurement kind: Percent Remaining (%) 60 min
Answers are plain numbers, in %.

- compound: "[2H]c1c([2H])c(-n2nc3c(C(N)=O)cccc3c2[2H])c([2H])c([2H])c1[C@@H]1CCCNC1"
  measurement kind: "Percent Remaining (%) 60 min"
  uom: "%"
  result: 44.60
- compound: "[2H]C1NC([2H])C([2H])(c2ccc(-n3cc4cccc(C(N)=O)c4n3)cc2)C([2H])C1[2H] (stereo not drawn)"
  measurement kind: "Percent Remaining (%) 60 min"
  uom: "%"
  result: 80.31
- compound: "[2H]c1c([2H])c(-n2cc3cccc(C(N)=O)c3n2)c([2H])c([2H])c1C1CCCNC1 (stereo not drawn)"
  measurement kind: "Percent Remaining (%) 60 min"
  uom: "%"
  result: 56.02
- compound: "[2H]C1([2H])NC([2H])([2H])C([2H])(c2ccc(-n3cc4cccc(C(N)=O)c4n3)cc2)C([2H])([2H])C1([2H])[2H] (racemic)"
  measurement kind: "Percent Remaining (%) 60 min"
  uom: "%"
  result: 69.31
- compound: "[2H]c1c([2H])c(C2([2H])CCCNC2[2H])c([2H])c([2H])c1-n1cc2cccc(C(N)=O)c2n1 (stereo not drawn)"
  measurement kind: "Percent Remaining (%) 60 min"
  uom: "%"
  result: 75.27

Answer with the recorded Percent Remaining (%) 60 min of [2H]c1c([2H])c(C2([2H])C([2H])([2H])NC([2H])([2H])C([2H])([2H])C2([2H])[2H])c([2H])c([2H])c1-n1cc2cccc(C(N)=O)c2n1 (stereo not drawn) only.
69.05

----------
- measurement notes: Metabolic stability in pooled rat liver microsomes
- measurement parameters: rat, pooled rat liver microsomes, pH 7.4, Clint, rat liver microsomes; Table 3 (Example 18)
measurement kind: CLint scaled at 0.5 µM (mL/min/kg)
Answers are plain numbers, in mL/min/kg.

# return recorded CLint scaled at 0.5 µM for input O=C(c1ccc(F)cc1)C1CCN(CCn2c(=O)[nH]c3ccccc3c2=O)CC1 [ketanserin]
179

----------
- measurement notes: Metabolic stability in pooled rat liver microsomes
- measurement parameters: rat, pooled rat liver microsomes, pH 7.4, T1/2, rat liver microsomes; Table 1 (Example 16)
measurement kind: half-life at 0.5 µM

For the molecule "O=C(c1ccc(F)cc1)C1CCN(CCn2c(=O)[nH]c3ccccc3c2=O)CC1" , report half-life at 0.5 µM.
13.2 min

----------
- measurement notes: in vitro
- measurement parameters: rat, microsomes, 0.25 h, 0.5 µM, pH 7.4
Label Criterion met for high-side Percent Remaining (%) 15 min (at or above 90%) and Criterion not met for low-side Percent Remaining (%) 15 min (below it).

- compound: "[2H]c1c([2H])c(-n2nc3c(C(N)=O)cccc3c2[2H])c([2H])c([2H])c1[C@@H]1CCCNC1 [Example 15]"
  qualitative label: "Criterion not met"
- compound: "[2H]c1c([2H])c(-n2cc3cccc(C(N)=O)c3n2)c([2H])c([2H])c1C1C([2H])NC([2H])C([2H])C1[2H] (centres unmarked) [Example 6]"
  qualitative label: "Criterion met"

# check: Percent Remaining (%) 15 min of [2H]C1([2H])NC([2H])([2H])C([2H])(c2ccc(-n3cc4cccc(C(N)=O)c4n3)cc2)C([2H])([2H])C1([2H])[2H] (racemic) [Example 3] is greater than or equal to 90%
Criterion met

Can [2H]C1NC([2H])C([2H])(c2ccc(-n3cc4cccc(C(N)=O)c4n3)cc2)C([2H])C1[2H] (centres unmarked) [Example 5] be said to have Percent Remaining (%) 15 min at or above 90%?
Criterion met

----------
- measurement notes: in vitro
- measurement parameters: rat, microsomes, pH 7.4, T1/2
half-life at 0.5 µM less than 2 h is criterion met; half-life at 0.5 µM greater than or equal to 2 h is criterion not met.

Before answering, review these 2 worked examples.
- compound: "[2H]c1c([2H])c(-n2nc3c(C(N)=O)cccc3c2[2H])c([2H])c([2H])c1[C@@H]1CCCNC1"
  qualitative label: "criterion met"
- compound: "[2H]c1c([2H])c(-n2cc3cccc(C(N)=O)c3n2)c([2H])c([2H])c1C1CCCNC1 (centres unmarked)"
  qualitative label: "criterion met"

Decide: half-life at 0.5 µM of [2H]c1c([2H])c(C2([2H])CCCNC2[2H])c([2H])c([2H])c1-n1cc2cccc(C(N)=O)c2n1 (centres unmarked) strictly below 2 h?
criterion not met

half-life at 0.5 µM strictly < 2 h for this compound? [2H]C1NC([2H])C([2H])(c2ccc(-n3cc4cccc(C(N)=O)c4n3)cc2)C([2H])C1[2H] (centres unmarked)
criterion not met

----------
- measurement notes: in vitro
- measurement parameters: rat, microsomes, 0.25 h, 0.5 µM, pH 7.4
measurement kind: Percent Remaining (%) 15 min
Answers are plain numbers, in %.

// solved cases for Percent Remaining (%) 15 min follow
- compound: "[2H]c1c([2H])c(C2([2H])C([2H])([2H])NC([2H])([2H])C([2H])([2H])C2([2H])[2H])c([2H])c([2H])c1-n1cc2cccc(C(N)=O)c2n1 (stereo not drawn)"
  Percent Remaining (%) 15 min: 93.04
- compound: "[2H]c1c([2H])c(C2([2H])CCCNC2[2H])c([2H])c([2H])c1-n1cc2cccc(C(N)=O)c2n1 (stereo not drawn)"
  Percent Remaining (%) 15 min: 98.91

Please report Percent Remaining (%) 15 min for the following compound: [2H]C1NC([2H])C(c2ccc(-n3cc4cccc(C(N)=O)c4n3)cc2)C([2H])C1[2H] (stereo not drawn)
94.47

----------
- measurement notes: in vitro
- measurement parameters: rat, microsomes, 0 h, 0.5 µM, pH 7.4
measurement kind: Percent Remaining (%) 0 min
Answers are plain numbers, in %.

These solved cases illustrate the format of a correct answer.
- molecule: "[2H]c1c([2H])c(-n2nc3c(C(N)=O)cccc3c2[2H])c([2H])c([2H])c1[C@@H]1CCCNC1 [Example 15]"
  result: 100.00
- molecule: "[2H]C1NC([2H])C(c2ccc(-n3cc4cccc(C(N)=O)c4n3)cc2)C([2H])C1[2H] (stereo not shown) [Example 7]"
  result: 100
- molecule: "[2H]c1c([2H])c(-n2cc3cccc(C(N)=O)c3n2)c([2H])c([2H])c1C1C([2H])NC([2H])C([2H])C1[2H] (stereo not shown) [Example 6]"
  result: 100

Let's switch to this molecule now.
Assign Percent Remaining (%) 0 min to the following record: [2H]C1([2H])NC([2H])([2H])C([2H])(c2ccc(-n3cc4cccc(C(N)=O)c4n3)cc2)C([2H])([2H])C1([2H])[2H] (racemic) [Example 3]
100.00

----------
- measurement notes: Metabolic stability in pooled rat liver microsomes
- measurement parameters: rat, pooled rat liver microsomes, pH 7.4, Clint, rat liver microsomes; Table 4 (Example 19)
measurement kind: CLint scaled at 0.5 µM (mL/min/kg)
Give bare numbers, in mL/min/kg.

Assign CLint scaled at 0.5 µM to the following record: "O=C(c1ccc(F)cc1)C1CCN(CCn2c(=O)[nH]c3ccccc3c2=O)CC1"
179

----------
- measurement notes: Metabolic stability in pooled rat liver microsomes
- measurement parameters: rat, pooled rat liver microsomes, pH 7.4, Clint, rat liver microsomes; Table 5 (Example 20)
measurement kind: CLint scaled at 0.5 µM (mL/min/kg)
Give bare numbers, in mL/min/kg.

Tell me its CLint scaled at 0.5 µM given O=C(c1ccc(F)cc1)C1CCN(CCn2c(=O)[nH]c3ccccc3c2=O)CC1 [ketanserin] as the entry.
154
